- test-target: T1, human PACAP38 (human, not fully specified; C-terminal lysine is amidated; N-terminal or C-terminal biotin in the HTRF and PC-12 cell binding assays)
- T1 construct: synthetic peptide, bought; also called huPACAP (1-38)
- T1 peptide: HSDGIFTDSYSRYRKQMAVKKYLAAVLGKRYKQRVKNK
- protocol-description: SPR, Ab immobilised
Reported kon values for a set of binders
Answer in M⁻¹ s⁻¹, number only, no unit symbol.

{"binder": "anti-PACAP antibody Ab5 (antibody, human IgG1, kappa, N297A, V domains shown, full-length rabbit/human chimeric antibody) VH: QSVEESGGRLVTPGTPLTLTCTVSGFSLSSYAMIWVRQAPGKGLEWIGIIYDNGDTYYASWAKGRFTISKTSTTVYLKIASPTTEDTATYFCAREPGSTTQNDLWGQGTLVTVSS VL: DVVMTQTPASVSEPVGGTVTIKCQASENIYNSLLWYQQKPGQPPKLLIYRASTLASGVSSRFKGSGSGTEFTLTISDLECADAATYYCQNYYNIWTNGAAFGGGTEVVVKR", "observable": "kon", "quantitative-result": 240000}
{"binder": "anti-PACAP antibody Ab8 (antibody, human IgG1, kappa, N297A, V domains shown, full-length rabbit/human chimeric antibody) VH: LEQSGGGAEGGLVKPGGSLELCCKASGFSLTTSHWMCWVRQAPGKGLNWIGCISAGSGDADYATWVDAQFTLSRDIDQNTGCLQLNSLTPADTAMYYCTINFELWGQGTLVTVSS VL: AQVLTQTPSSVSAAVGGTVTINCQSSPSVYSSYLSWFQQKPGQPPKFLIYEASKLASGVPSRFSGSGSGTQFTLTISGVQCSDAATYYCLGAYDCGRTDCHAFGGGTEVVVKR", "observable": "kon", "quantitative-result": 350000}

q: Fill blank: measured kon of the binder anti-PACAP antibody Ab4 (antibody, human IgG1, kappa, N297A, V domains shown, full-length rabbit/human chimeric antibody) VH: QSVEESGGRLVTPGTPLTLTCTVSGFSLSSYDMSWVRQAPGKGLEYIGIINTNDDTWYASWVKGRFTISKTSSTTVDLKMTSLTTEDTATYFCARISDAYVFDYAYYFTLWGQGTLVTVSS VL: ALVMTQTPSSVSAAVGGTVTINCLASQNIYNSLAWYQQKPGQPPKLLIYRASTLASGVSSRFKGSGSGTQFTLTISGVECADAATYYCQQGAGADNIGNPFGGGTEVVVKR is ____.
a: 330000

The values you see were collected from patent US20190233498A1.
